- measurement_target: cathepsin B (Homo sapiens, UniProt P07858)
- Construct: purchased Calbiochem 219364
- test_name: Inhibition of cathepsin B
- Type: biochemical
- test_context: Table III; 1 uM; read-out: Cat B % I @ 1 uM
Square brackets hold non-standard residues; d marks the D form. Peptide text beside a SMILES is read from it. * marks the point of attachment. Tos = Cc1ccc(S(=O)(=O)*)cc1; dΔPro = O=C(O)[C@H]1C=CCN1; Ms = CS(=O)(=O)*
measurement_type: inhibition at 1 µM (%)
Just the number please, in %, no unit attached.

// solved cases for inhibition at 1 µM follow
- O=C[C@H](Cc1ccccc1)NC(=O)[C@@H](Cc1ccccc1)NS(=O)(=O)c1cccs1 [Compound 75]: 100
- CS(=O)(=O)N[C@H](COCc1ccccc1)C(=O)N[C@@H](Cc1ccccc1)C(O)OCc1ccccc1 (stereo partly shown) [Compound 135]: 98
- CC(C)C[C@@H](NS(C)(=O)=O)C(=O)N[C@H](C=O)Cc1ccccc1 [Compound 86] (Ms-[dL]-Phe-aldehyde): 78

Let us examine a further case.
-- ask Indicate the recorded inhibition at 1 µM value for this compound: Cc1ccc(S(=O)(=O)N2CC=C[C@@H]2C(=O)N[C@H](C=O)Cc2ccccc2)cc1 [Compound 130] (Tos-[dΔPro]-Phe-aldehyde)
-- reply 62

###

- measurement_target: Recombinant human calpain I (Homo sapiens, UniProt P07384)
- Construct: made in house
- Sequence (P07384 whole entry): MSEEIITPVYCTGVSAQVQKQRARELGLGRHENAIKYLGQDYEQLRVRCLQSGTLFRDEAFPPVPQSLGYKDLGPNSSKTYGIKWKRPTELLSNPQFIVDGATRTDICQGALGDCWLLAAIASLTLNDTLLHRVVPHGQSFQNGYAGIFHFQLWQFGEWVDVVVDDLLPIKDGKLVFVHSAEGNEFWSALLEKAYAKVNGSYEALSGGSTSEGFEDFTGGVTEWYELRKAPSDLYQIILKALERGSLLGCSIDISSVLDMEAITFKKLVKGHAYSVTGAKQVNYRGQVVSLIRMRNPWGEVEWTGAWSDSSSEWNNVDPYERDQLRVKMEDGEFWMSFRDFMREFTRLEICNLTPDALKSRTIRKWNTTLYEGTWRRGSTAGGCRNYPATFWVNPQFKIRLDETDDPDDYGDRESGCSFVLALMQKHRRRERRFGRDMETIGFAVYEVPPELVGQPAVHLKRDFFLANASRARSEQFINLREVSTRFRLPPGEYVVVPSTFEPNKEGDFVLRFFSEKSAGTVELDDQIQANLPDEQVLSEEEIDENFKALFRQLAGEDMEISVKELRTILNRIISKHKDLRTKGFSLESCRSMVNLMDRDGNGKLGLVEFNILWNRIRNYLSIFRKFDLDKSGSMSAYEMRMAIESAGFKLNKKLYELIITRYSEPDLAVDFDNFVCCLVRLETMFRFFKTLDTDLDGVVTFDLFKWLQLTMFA
- test_name: Inhibition of calpain I activity
- Assay type: biochemical
- test_context: Table III; 0.1 uM
Reported inhibition at 0.1 µM is given for each of the following compounds.
Note: unit % is implicit; provide only the numeric part.

Reference set, count: 3
- CS(=O)(=O)N[C@H](COCc1ccccc1)C(=O)N[C@@H](C=O)Cc1ccccc1: 2
- Cc1noc(C)c1S(=O)(=O)N[C@H](COCc1ccccc1)C(=O)N[C@H](C=O)Cc1ccccc1: 87
- CCNC(=O)OC[C@H](Cc1ccccc1)NC(=O)[C@H]1CCCN1S(=O)(=O)c1ccc(C)cc1: 7

Proceeding to the next compound to report its inhibition at 0.1 µM.
-- ask State measured inhibition at 0.1 µM of the compound `O=C[C@H](Cc1ccccc1)NC(=O)[C@H]1C[C@@H](OS(=O)(=O)c2ccccc2)CN1S(=O)(=O)c1ccccc1` with Recombinant human calpain I (Homo sapiens, UniProt P07384).
-- reply 7

###

- measurement_target: α-chymotrypsin (Bos taurus, UniProt P00766)
- Construct: purchased Sigma Chem. Co. C-3142
- test_name: Inhibition of α-chymotrypsin
- Format: biochemical
- test_context: Table III; 10 uM; read-out: Chymotrypsin % I @ 10 uM
Square brackets hold non-standard residues; d marks the D form. Peptide text beside a SMILES is read from it. * marks the point of attachment. Abu = CC[C@H](N)C(=O)O; Bn = c1ccc(C*)cc1; Ms = CS(=O)(=O)*
measurement_type: inhibition at 10 µM (%)
Only the number, expressed in %, is required.

- CC(=O)Nc1ccc(S(=O)(=O)N[C@H](COCc2ccccc2)C(=O)N[C@H](C=O)Cc2ccccc2)cc1 [Compound 51]: 3
- Cc1noc(C)c1S(=O)(=O)N[C@H](COCc1ccccc1)C(=O)N[C@H](C=O)Cc1ccccc1 [Compound 55]: 12

-- ask Let me know recorded inhibition at 10 µM for CS(=O)(=O)N[C@H](Cc1c[nH]c2ccccc12)C(=O)N[C@H](C=O)Cc1ccccc1 [Compound 77] (Ms-[dW]-Phe-aldehyde) , thanks.
-- reply 0

-- ask Supply inhibition at 10 µM value. Item: O=C[C@H](Cc1ccccc1)NC(=O)[C@@H](Cc1ccccc1)NS(=O)(=O)c1ccc2ccccc2c1 [Compound 72]
-- reply 7

-- ask Supply recorded inhibition at 10 µM for CCOC(OCC)[C@H](Cc1ccccc1)NC(=O)[C@@H](COCc1ccccc1)NS(C)(=O)=O [Compound 134] here.
-- reply 10

-- ask Kindly indicate its recorded inhibition at 10 µM. Item: CC[C@@H](C=O)NC(=O)[C@@H](COCc1ccccc1)NS(C)(=O)=O [Compound 41] (Ms-[dS](Bn)-[Abu]-aldehyde)
-- reply 0

-- ask Using known records, supply inhibition at 10 µM for O=C[C@H](Cc1ccccc1)NC(=O)[C@@H](COCc1ccccc1)NS(=O)(=O)c1ccc2ccccc2c1 [Compound 52]
-- reply 0

###

- measurement_target: thrombin (Homo sapiens)
- Construct: purchased Sigma Chem. Co. T-7009
- test_name: Inhibition of thrombin
- Type: biochemical
- test_context: Table III; 10 uM; read-out: Thrombin % I @ 10 uM
Square brackets hold non-standard residues; d marks the D form. Peptide text beside a SMILES is read from it. * marks the point of attachment. Bn = c1ccc(C*)cc1; Ms = CS(=O)(=O)*
Reported inhibition at 10 µM values follow for various compounds
Give the quantity in %, number only.

Some solved entries appear below for comparison.
- CS(=O)(=O)N[C@H](COCc1ccccc1)C(=O)N[C@H](C=O)Cc1ccc(OCc2ccccc2)cc1 [Compound 90] (Ms-[dS](Bn)-Tyr(Bn)-aldehyde): 0
- CS(=O)(=O)N[C@H](COCc1ccccc1)C(=O)N[C@H](C=NNC(N)=O)Cc1ccccc1 [Compound 115]: 0
- Cc1ccc(S(=O)(=O)N2C[C@@H](N=[N+]=[N-])C[C@@H]2C(=O)N[C@H](C=O)Cc2ccccc2)cc1 [Compound 114]: 3

In the following, a different compound is considered.
-- ask Report measured inhibition at 10 µM on thrombin (Homo sapiens); entry: O=C[C@H](Cc1ccccc1)NC(=O)[C@@H](Cc1ccccc1)NS(=O)(=O)c1cccs1 [Compound 75]
-- reply 10

###

Measured inhibition at 1 µM values are reported for all entries that follow.
- measurement_target: cathepsin B (Homo sapiens, UniProt P07858)
- Construct: purchased Calbiochem 219364
- test_name: Inhibition of cathepsin B
- Assay type: biochemical
- test_context: Table III; 1 uM; read-out: Cat B % I @ 1 uM
Square brackets hold non-standard residues; d marks the D form. Peptide text beside a SMILES is read from it. * marks the point of attachment. Bn = c1ccc(C*)cc1; Ms = CS(=O)(=O)*
Please give a number only; it is taken to be in %.

Solved cases (5 shown):
- CS(=O)(=O)N[C@H](COCc1ccccc1)C(=O)N[C@H](C=O)Cc1ccc(OCc2ccccc2)cc1 [Compound 90] (Ms-[dS](Bn)-Tyr(Bn)-aldehyde): 100
- CCNC(=O)OC[C@H](Cc1ccccc1)NC(=O)[C@H]1CCCN1S(=O)(=O)c1ccc(C)cc1: 16
- O=C[C@H](Cc1ccccc1)NC(=O)[C@@H](COCc1ccccc1)NS(=O)(=O)c1ccccc1: 99
- C[C@@H](NS(=O)(=O)c1ccccc1)C(=O)N[C@H](C=O)Cc1ccccc1: 86
- CN(Cc1ccccc1)C(=O)CC[C@@H](NS(C)(=O)=O)C(=O)N[C@H](C=O)Cc1ccccc1: 99

-- ask Give reported inhibition at 1 µM value for `CN(Cc1ccccc1)C(=O)C[C@@H](NS(C)(=O)=O)C(=O)N[C@H](C=O)Cc1ccccc1`
-- reply 100

-- ask Please report inhibition at 1 µM for the following molecule: `Cc1ccc(S(=O)(=O)N[C@H](COCc2ccccc2)C(=O)N[C@H](C=O)Cc2ccccc2)cc1`
-- reply 99

###

- measurement_target: Recombinant human calpain I (Homo sapiens)
- Construct: made in house
- test_name: Inhibition of calpain I activity
- Format: biochemical
- test_context: Table III
Square brackets hold non-standard residues; d marks the D form. Peptide text beside a SMILES is read from it. * marks the point of attachment. Abu = CC[C@H](N)C(=O)O; Bn = c1ccc(C*)cc1; Ms = CS(=O)(=O)*
Reported pIC50 values are given for each entry in this list.
Value format note: pIC50 is -log10 of concentration (mol/L); just state the number.

- CC(C)C[C@@H](C=O)NC(=O)[C@@H](COCc1ccccc1)NS(C)(=O)=O [Compound 88] (Ms-[dS](Bn)-Leu-aldehyde): 7.03
- CC[C@@H](C=O)NC(=O)[C@@H](COCc1ccccc1)NS(C)(=O)=O [Compound 41] (Ms-[dS](Bn)-[Abu]-aldehyde): 7.30
- CS(=O)(=O)N[C@H](COCc1ccccc1)C(=O)N[C@H](C=O)CCCCNS(=O)(=O)c1ccccc1 [Compound 122]: 8.52
- CS(=O)(=O)N[C@H](Cc1c[nH]c2ccccc12)C(=O)N[C@H](C=O)Cc1ccccc1 [Compound 77] (Ms-[dW]-Phe-aldehyde): 7.85
- O=C[C@H](Cc1ccccc1)NC(=O)[C@@H](COCc1ccccc1)NS(=O)(=O)c1cccs1 [Compound 54]: 7.89
- CS(=O)(=O)N1Cc2ccccc2CC1C(=O)N[C@H](C=O)Cc1ccccc1 (single isomer, unassigned) [Compound 96]: 6.76

Continue with the compound presented below.
-- ask Retrieve pIC50 measured for O=C[C@H](Cc1ccccc1)NC(=O)[C@@H](COCc1ccccc1)NS(=O)(=O)c1ccccc1 [Compound 48] and print it.
-- reply 7.51

Cited source: patent US5852007A
